Measured IC50 (human IKK-β (Homo sapiens, UniProt O14920))
Where a name gives a salt, the structure may show the parent alone.

A selection of reference data follows.
compound	IC50
CCCOc1cccc(O)c1-c1cc(C2CCNCC2)c2c(n1)NC(=O)CC2	< 500 nM
CCCNc1nc(-c2ccccc2O)cc(C2CCCNC2)c1C#N (centres unmarked) [Example 4-2, hydrochloride]	2000 to 10000 nM
CCCNC(=O)NCc1c(C2CCCNC2)cc(-c2c(O)cccc2OCC2CC2)nc1N (centres unmarked)	< 500 nM
N#Cc1c(NC2CCNCC2)cc(-c2ccccc2O)nc1N	< 500 nM

Q. Form field - read-out: IC50; system: human IKK-β (Homo sapiens, UniProt O14920); submitted item: `N#Cc1ccc(-c2ccccc2O)nc1N`
Sequence (O14920 whole entry): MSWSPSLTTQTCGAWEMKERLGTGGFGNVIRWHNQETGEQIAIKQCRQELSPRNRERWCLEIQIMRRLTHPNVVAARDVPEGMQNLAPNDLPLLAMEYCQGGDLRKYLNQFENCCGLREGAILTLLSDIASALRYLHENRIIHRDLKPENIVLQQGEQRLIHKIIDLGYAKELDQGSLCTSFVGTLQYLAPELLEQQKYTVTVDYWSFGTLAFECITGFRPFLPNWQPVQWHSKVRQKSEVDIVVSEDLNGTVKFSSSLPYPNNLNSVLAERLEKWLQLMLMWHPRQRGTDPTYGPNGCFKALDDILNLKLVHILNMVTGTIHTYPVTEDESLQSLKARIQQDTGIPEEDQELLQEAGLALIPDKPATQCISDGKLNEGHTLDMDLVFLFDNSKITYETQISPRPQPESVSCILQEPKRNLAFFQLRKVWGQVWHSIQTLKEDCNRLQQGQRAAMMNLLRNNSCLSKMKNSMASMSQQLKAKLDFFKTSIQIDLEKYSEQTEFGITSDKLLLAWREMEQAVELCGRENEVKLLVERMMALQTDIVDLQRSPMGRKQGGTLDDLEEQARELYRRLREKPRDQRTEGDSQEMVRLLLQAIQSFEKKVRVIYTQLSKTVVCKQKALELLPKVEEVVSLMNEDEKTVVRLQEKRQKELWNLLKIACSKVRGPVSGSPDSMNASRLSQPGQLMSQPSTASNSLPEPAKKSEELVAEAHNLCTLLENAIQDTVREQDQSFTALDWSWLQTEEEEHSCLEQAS
A. 500 to 2000 nM

Q. Form field - read-out: IC50; system: human IKK-β (Homo sapiens, UniProt O14920); submitted item: N#Cc1c(C2CCCN(Cc3ccccc3)C2)cc(-c2c(O)cccc2OCC2CC2)nc1N (centres unmarked)
A. 2000 to 10000 nM
